# conditions-used: in 1,4-dioxane, 313.15 K
measured-quantity: solubility (mole fraction)

// solubility (mole fraction) lookup, key: OCc1ccc(O[C@@H]2O[C@H](CO)[C@@H](O)[C@H](O)[C@H]2O)cc1 0.0063

====

# conditions-used: in cyclohexane, 293.15 K
measured-quantity: solubility (mole fraction)
Answers are plain numbers.

// solubility (mole fraction) lookup, key: OCc1ccc(O[C@@H]2O[C@H](CO)[C@@H](O)[C@H](O)[C@H]2O)cc1 0.0016

====

# conditions-used: in acetonitrile, 283.15 K
measured-quantity: solubility (mole fraction)

// solubility (mole fraction) lookup, key: OCc1ccc(O[C@@H]2O[C@H](CO)[C@@H](O)[C@H](O)[C@H]2O)cc1 0.00088
